study target: T1, human EphA10 (Homo sapiens, UniProt Q5JZY3)
T1 construct: a protein of the extracellular region of each human Eph receptor fused with the SEAP protein and the His tag; made in house; host or cells: Expi293F cells (culture supernatant)
T1 sequence (Q5JZY3 34-565 limits assumed): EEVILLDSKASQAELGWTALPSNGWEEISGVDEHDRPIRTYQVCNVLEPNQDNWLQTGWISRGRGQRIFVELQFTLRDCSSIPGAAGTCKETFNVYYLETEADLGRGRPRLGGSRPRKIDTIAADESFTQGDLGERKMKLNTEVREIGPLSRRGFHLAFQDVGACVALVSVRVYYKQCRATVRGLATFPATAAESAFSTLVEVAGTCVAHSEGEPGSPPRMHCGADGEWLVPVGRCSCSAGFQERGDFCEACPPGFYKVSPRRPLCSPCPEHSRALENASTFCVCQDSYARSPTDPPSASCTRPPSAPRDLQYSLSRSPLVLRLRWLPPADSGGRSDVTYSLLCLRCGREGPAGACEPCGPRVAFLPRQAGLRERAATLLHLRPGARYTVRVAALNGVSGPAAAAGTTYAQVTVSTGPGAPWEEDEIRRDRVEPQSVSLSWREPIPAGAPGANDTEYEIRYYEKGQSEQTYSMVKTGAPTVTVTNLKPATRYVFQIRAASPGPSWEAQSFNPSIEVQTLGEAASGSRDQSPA
assay method text: Selectivity ELISA of humanized antibodies for human Eph receptor
Format: binding
condition label: coated protein 1 nM
Source text: According to the method described in Example 7, a DNA sequence encoding the signal sequence and the extracellular region of each human Eph receptor (EphA1, EphA2, EphA3, EphA4, EphA5, EphA6, EphA7, EphA8, EphA10, EphB1, EphB2, EphB3, EphB4, and EphB6) was amplified by RT-PCR using tissue-derived total RNA and cloned into a pENTR1A vector (Invitrogen/Life Technologies) having a DNA sequence encoding SEAP protein and histidine tag. […]
quantity kind: hEphA10-SEAP-: absorbance at 450 nm, percentage with respect to hEphA4-SEAP-His as 100% (%)
Give your result in % as a bare value.

Which value of hEphA10-SEAP-: absorbance at 450 nm, percentage with respect to hEphA4-SEAP-His as 100% has been reported for 92 (antibody, V domains shown, constant regions without entry; synthetic humanized antibody light chain variable region sequence; synthetic humanized antibody heavy chain variable region sequence) VL: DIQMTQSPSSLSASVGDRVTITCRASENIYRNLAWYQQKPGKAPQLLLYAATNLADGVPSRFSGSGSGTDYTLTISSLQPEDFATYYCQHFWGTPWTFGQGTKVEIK VH: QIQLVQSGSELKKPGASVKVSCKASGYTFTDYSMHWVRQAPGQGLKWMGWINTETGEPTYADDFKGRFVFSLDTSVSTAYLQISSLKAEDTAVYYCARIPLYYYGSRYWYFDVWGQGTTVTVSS in the records?
6.6

Where do these numbers come from? They come from patent US10428140B2.
